Assay: Cytotoxicity assay in MT-4 cells
Type: cell-based
Conditions: human; uninfected MT-4 cells, 5 days incubation, Cell Titer Glo; read-out: MT4 CC50
The entries below are paired with their reported CC50 at 5 days.

Worked cases, CC50 at 5 days given:
[
  {
    "chemicalSmiles": "COC1=NO[C@@]2(CC[C@H](C)N3C[C@H]2n2cc(C(=O)NCc4ccc(F)cc4F)c(=O)c(OC(=O)OCCC(C)C)c2C3=O)C1",
    "CC50 at 5 days": "18.5 µM"
  },
  {
    "chemicalSmiles": "COC1=NO[C@@]2(CC[C@H](C)N3C[C@H]2n2cc(C(=O)NCc4ccc(F)cc4F)c(=O)c(OCOC(=O)CCCC(C)C)c2C3=O)C1",
    "CC50 at 5 days": "20.3 µM"
  }
]

For the next question, use this molecule.
Query: For the molecule shown here, CCCCCCCCC(=O)OCOc1c2n(cc(C(=O)NCc3ccc(F)cc3F)c1=O)[C@@H]1CN(C2=O)[C@@H](C)CC[C@]12CC(C)=NO2 , give the reported CC50 at 5 days.
Result: ≥ 50 µM

---

The entries below are paired with their reported CC50 at 5 days.
Assay: Cytotoxicity assay in MT-4 cells
Assay type: cell-based
Conditions: human; uninfected MT-4 cells, 5 days incubation, Cell Titer Glo; read-out: MT4 CC50
Number in µM, nothing else.

Worked cases, CC50 at 5 days given:
[
  {
    "compound": "CCCOC(=O)OCOc1c2n(cc(C(=O)NCc3ccc(F)cc3F)c1=O)[C@@H]1CN(C2=O)[C@@H](C)CC[C@]12CC(OC)=NO2 [Example 175]",
    "CC50 at 5 days [µM]": 23.3
  },
  {
    "compound": "CCOC(=O)Oc1c2n(cc(C(=O)NCc3ccc(F)cc3F)c1=O)[C@@H]1CN(C2=O)[C@@H](C)CC[C@]12CC(C)=NO2 [Example 123]",
    "CC50 at 5 days [µM]": 14.1
  },
  {
    "compound": "CCC(C)C(=O)Oc1c2n(cc(C(=O)NCc3ccc(F)cc3F)c1=O)[C@@H]1CN(C2=O)[C@@H](C)CC[C@]12CC(OC)=NO2 (stereo partly drawn) [Example 50]",
    "CC50 at 5 days [µM]": 21.7
  },
  {
    "compound": "CCCCC(=O)Oc1c2n(cc(C(=O)NCc3ccc(F)cc3F)c1=O)[C@@H]1CN(C2=O)[C@@H](C)CC[C@]12CC(C)=NO2 [Example 17]",
    "CC50 at 5 days [µM]": 10.2
  }
]

Query: For the compound shown here, CCCCCCCOC(=O)OCOc1c2n(cc(C(=O)NCc3ccc(F)cc3F)c1=O)[C@@H]1CN(C2=O)[C@@H](C)CC[C@]12CC(C)=NO2 [Example 183] , give the reported CC50 at 5 days.
Result: 11.4

Query: Continue with COCCOC(=O)Oc1c2n(cc(C(=O)NCc3ccc(F)cc3F)c1=O)[C@@H]1CN(C2=O)[C@@H](C)CC[C@]12CC(C)=NO2 [Example 9]
Result: 19.6

Query: Continue with COC1=NO[C@@]2(CC[C@H](C)N3C[C@H]2n2cc(C(=O)NCc4ccc(F)cc4F)c(=O)c(OC(=O)CCCC(C)C)c2C3=O)C1 [Example 60]
Result: 21

Query: Continue with CCCCCCCCCC(=O)Oc1c2n(cc(C(=O)NCc3ccc(F)cc3F)c1=O)[C@@H]1CN(C2=O)[C@@H](C)CC[C@]12CC(OC)=NO2 [Example 44]
Result: 24.5

Query: Continue with COCCCCCC(=O)Oc1c2n(cc(C(=O)NCc3ccc(F)cc3F)c1=O)[C@@H]1CN(C2=O)[C@@H](C)CC[C@]12CC(C)=NO2 [Example 71]
Result: 19.5

---

Experiment: physchem
Assay type: physicochemical
Settings: 23 °C, aqueous buffer, thermodynamic from solid; PBS, ambient temperature, 5 mg/mL dose concentration
The entries below are paired with their reported solubility thermodynamic.
Number in µg/mL, nothing else.

Worked cases, solubility thermodynamic given:
[
  {
    "compound": "CC1=NO[C@@]2(CC[C@H](C)N3C[C@H]2n2cc(C(=O)NCc4ccc(F)cc4F)c(=O)c(OC(=O)OC(C)C)c2C3=O)C1 [Example 22]",
    "property": "solubility thermodynamic",
    "unitString": "µg/mL",
    "recordedNumber": 34
  },
  {
    "compound": "CC(=O)Oc1c2n(cc(C(=O)NCc3ccc(F)cc3F)c1=O)[C@@H]1CN(C2=O)[C@@H](C)CC[C@]12CC(C)=NO2 [Example 16]",
    "property": "solubility thermodynamic",
    "unitString": "µg/mL",
    "recordedNumber": 372
  },
  {
    "compound": "COCCOC(=O)OCOc1c2n(cc(C(=O)NCc3ccc(F)cc3F)c1=O)[C@@H]1CN(C2=O)[C@@H](C)CC[C@]12CC(OC)=NO2 [Example 5]",
    "property": "solubility thermodynamic",
    "unitString": "µg/mL",
    "recordedNumber": 39
  }
]

For the next question, use this compound.
Query: For the compound shown here, COCCOC(=O)OCOc1c2n(cc(C(=O)NCc3ccc(F)cc3F)c1=O)[C@@H]1CN(C2=O)[C@@H](C)CC[C@]12CC(C)=NO2 [Example 10] , give the reported solubility thermodynamic.
Result: 15

---

Assay: Cytotoxicity assay in MT-4 cells
Type: cell-based
Conditions: human; uninfected MT-4 cells, 5 days incubation, Cell Titer Glo; read-out: MT4 CC50
The entries below are paired with their reported CC50 at 5 days.
Number in µM, nothing else.

[
  {
    "compound": "CCCCCCCCOC(=O)Oc1c2n(cc(C(=O)NCc3ccc(F)cc3F)c1=O)[C@@H]1CN(C2=O)[C@@H](C)CC[C@]12CC(C)=NO2 [Example 135]",
    "property": "CC50 at 5 days",
    "recordedNumber": 14.2
  },
  {
    "compound": "CCCCCC(=O)Oc1c2n(cc(C(=O)NCc3ccc(F)cc3F)c1=O)[C@@H]1CN(C2=O)[C@@H](C)CC[C@]12CC(C)=NO2 [Example 37]",
    "property": "CC50 at 5 days",
    "recordedNumber": 17.4
  },
  {
    "compound": "CCCCCCCC(=O)Oc1c2n(cc(C(=O)NCc3ccc(F)cc3F)c1=O)[C@@H]1CN(C2=O)[C@@H](C)CC[C@]12CC(C)=NO2 [Example 41]",
    "property": "CC50 at 5 days",
    "recordedNumber": 11.5
  }
]

Query: For the compound shown here, COC1=NO[C@@]2(CC[C@H](C)N3C[C@H]2n2cc(C(=O)NCc4ccc(F)cc4F)c(=O)c(OCOC(=O)OCCCCCC(C)C)c2C3=O)C1 [Example 208] , give the reported CC50 at 5 days.
Result: 21.3

---

Assay: Cytotoxicity assay in MT-4 cells
Format: cell-based
Conditions: human; uninfected MT-4 cells, 5 days incubation, Cell Titer Glo; read-out: MT4 CC50
Mark yes (1) for CC50 at 5 days under 20 µM, no (0) if at or over.

Some solved entries appear below for comparison.
[
  {
    "chemicalSmiles": "CC1=NO[C@@]2(CC[C@H](C)N3C[C@H]2n2cc(C(=O)NCc4ccc(F)cc4F)c(=O)c(OC(=O)OCCCCCC(C)C)c2C3=O)C1",
    "answerLabel": "yes (1)"
  },
  {
    "chemicalSmiles": "CC1=NO[C@@]2(CC[C@H](C)N3C[C@H]2n2cc(C(=O)NCc4ccc(F)cc4F)c(=O)c(OC(=O)OCC(C)C)c2C3=O)C1",
    "answerLabel": "yes (1)"
  },
  {
    "chemicalSmiles": "CCCC(=O)Oc1c2n(cc(C(=O)NCc3ccc(F)cc3F)c1=O)[C@@H]1CN(C2=O)[C@@H](C)CC[C@]12CC(C)=NO2",
    "answerLabel": "yes (1)"
  },
  {
    "chemicalSmiles": "CCCOC(=O)Oc1c2n(cc(C(=O)NCc3ccc(F)cc3F)c1=O)[C@@H]1CN(C2=O)[C@@H](C)CC[C@]12CC(C)=NO2",
    "answerLabel": "yes (1)"
  },
  {
    "chemicalSmiles": "CCCCCCCC(=O)OCOc1c2n(cc(C(=O)NCc3ccc(F)cc3F)c1=O)[C@@H]1CN(C2=O)[C@@H](C)CC[C@]12CC(C)=NO2",
    "answerLabel": "no (0)"
  }
]

Query: Would you kindly verify if CC50 at 5 days of COC1=NO[C@@]2(CC[C@H](C)N3C[C@H]2n2cc(C(=O)NCc4ccc(F)cc4F)c(=O)c(OC(=O)CCCCCCC(C)C)c2C3=O)C1 is strictly less than 20 µM?
Result: no (0)

---

Assay: Cytotoxicity assay in MT-4 cells
Assay type: cell-based
Settings: human; uninfected MT-4 cells, 5 days incubation, Cell Titer Glo; read-out: MT4 CC50
Mark Yes for CC50 at 5 days under 20 µM, No if at or over.

Some solved entries appear below for comparison.
[
  {
    "molecule": "COC1=NO[C@@]2(CC[C@H](C)N3C[C@H]2n2cc(C(=O)NCc4ccc(F)cc4F)c(=O)c(OC(=O)CCCCCCCCCCCCCCCCC(=O)O)c2C3=O)C1",
    "answerLabel": "No"
  },
  {
    "molecule": "CCCCCCCCCCCC(=O)Oc1c2n(cc(C(=O)NCc3ccc(F)cc3F)c1=O)[C@@H]1CN(C2=O)[C@@H](C)CC[C@]12CC(C)=NO2",
    "answerLabel": "No"
  },
  {
    "molecule": "CCCOC(=O)OCOc1c2n(cc(C(=O)NCc3ccc(F)cc3F)c1=O)[C@@H]1CN(C2=O)[C@@H](C)CC[C@]12CC(C)=NO2",
    "answerLabel": "Yes"
  }
]

Query: Would you kindly verify if CC50 at 5 days of CC1=NO[C@@]2(CC[C@H](C)N3C[C@H]2n2cc(C(=O)NCc4ccc(F)cc4F)c(=O)c(OCOC(=O)C(C)C)c2C3=O)C1 is strictly less than 20 µM?
Result: Yes

Query: Continue with CC1=NO[C@@]2(CC[C@H](C)N3C[C@H]2n2cc(C(=O)NCc4ccc(F)cc4F)c(=O)c(OCOC(=O)CCCCCC(C)C)c2C3=O)C1
Result: No

Query: Continue with COC1=NO[C@@]2(CC[C@H](C)N3C[C@H]2n2cc(C(=O)NCc4ccc(F)cc4F)c(=O)c(OC(=O)CCCCCC(C)C)c2C3=O)C1
Result: No

Query: Continue with CC1=NO[C@@]2(CC[C@H](C)N3C[C@H]2n2cc(C(=O)NCc4ccc(F)cc4F)c(=O)c(OC(=O)C(C)(C)C)c2C3=O)C1
Result: Yes

Query: Continue with COC1=NO[C@@]2(CC[C@H](C)N3C[C@H]2n2cc(C(=O)NCc4ccc(F)cc4F)c(=O)c(OC(=O)/C=C/C(=O)O)c2C3=O)C1
Result: Yes

Query: Continue with CCC(=O)Oc1c2n(cc(C(=O)NCc3ccc(F)cc3F)c1=O)[C@@H]1CN(C2=O)[C@@H](C)CC[C@]12CC(C)=NO2
Result: No

Query: Continue with CC1=NO[C@@]2(CC[C@H](C)N3C[C@H]2n2cc(C(=O)NCc4ccc(F)cc4F)c(=O)c(O[C@H](C)OC(=O)OC(C)C)c2C3=O)C1 (single isomer, unassigned)
Result: No
